# Tested on: Plasmodium falciparum
# Test Description: Inhibition of plasmodium falciparum CDPK5 assessed as remaining activity at 1 uM incubated for 2 hrs by luciferin-based luminescence assay relative to control
Reported Activity values are given for each entry in this list.
Entry rule: numbers only, all in %.

Check out these entries, answers already filled in.
[[record]]
structure_string = "COc1cc2nccc(Oc3ccc(NC(=O)Nc4ccc(OC5CCN(C)CC5)c(C(F)(F)F)c4)c(F)c3)c2cc1OC"
reported_measurement = 25

[[record]]
structure_string = "COc1cc2nccc(Oc3ccc(NC(=O)Nc4ccc(C=C5CCNCC5)cc4)c(F)c3)c2cc1OC"
reported_measurement = 98


Identify the reported Activity for the following entry. `COc1cc2nccc(Oc3ccc(NC(=O)Nc4ccc(CC5CCNCC5)c(C(F)(F)F)c4)c(F)c3)c2cc1OC`
27

Using the record for `COc1cc2nccc(Oc3ccc(NC(=O)Nc4ccc(CC5CCNCC5)cc4)c(F)c3)c2cc1OC` , state its measured Activity.
91

---

# Test Description: Apparent permeability of compound by PAMPA assay
# Format: ADME
Parameter Measured: Papp

Known results for molecules:
[[record]]
structure_string = "COc1cc2nccc(Oc3ccc(NC(=O)Nc4ccc(CC5CCNCC5)cc4)c(F)c3)c2cc1OC"
reported_measurement = "< 0.669 10^-6 cm/s"

[[record]]
structure_string = "COc1cc2nccc(Oc3ccc(NC(=O)Nc4ccc(CN5CCN(C)CC5)c(C(F)(F)F)c4)c(F)c3)c2cc1OC"
reported_measurement = "2.57 10^-6 cm/s"

[[record]]
structure_string = "COc1cc2nccc(Oc3ccc(NC(=O)Nc4ccc(C=C5CCNCC5)cc4)c(F)c3)c2cc1OC"
reported_measurement = "< 0.709 10^-6 cm/s"

[[record]]
structure_string = "COc1cc2nccc(Oc3ccc(NC(=O)Nc4ccc(CC5CCNCC5)c(C(F)(F)F)c4)c(F)c3)c2cc1OC"
reported_measurement = "0.734 10^-6 cm/s"


Moving on to the next molecule.
Report Papp for `COc1cc2nccc(Oc3ccc(NC(=O)Nc4ccc(OC5CCN(C)CC5)c(C(F)(F)F)c4)c(F)c3)c2cc1OC`
< 0.513 10^-6 cm/s

---

# System: Plasmodium falciparum
# Test Description: Inhibition of plasmodium falciparum CDPK2 assessed as remaining activity at 1 uM incubated for 2 hrs by luciferin-based luminescence assay relative to control
Parameter Measured: Activity (%)
Expressed in %, but write only the number.

[[record]]
structure_string = "COc1cc2nccc(Oc3ccc(NC(=O)Nc4ccc(C=C5CCNCC5)cc4)c(F)c3)c2cc1OC"
parameter_measured = "Activity"
unit_label = "%"
reported_measurement = 96

[[record]]
structure_string = "COc1cc2nccc(Oc3ccc(NC(=O)Nc4ccc(OC5CCN(C)CC5)c(C(F)(F)F)c4)c(F)c3)c2cc1OC"
parameter_measured = "Activity"
unit_label = "%"
reported_measurement = 78

[[record]]
structure_string = "COc1cc2nccc(Oc3ccc(NC(=O)Nc4ccc(CC5CCNCC5)cc4)c(F)c3)c2cc1OC"
parameter_measured = "Activity"
unit_label = "%"
reported_measurement = 88


Below: the item to evaluate.
Entry `COc1cc2nccc(Oc3ccc(NC(=O)Nc4ccc(CC5CCNCC5)c(C(F)(F)F)c4)c(F)c3)c2cc1OC` needs its Activity filled in; supply it.
64

---

# System: Plasmodium falciparum
# Test Description: Inhibition of plasmodium falciparum PK5 assessed as remaining activity at 1 uM incubated for 2 hrs by luciferin-based luminescence assay relative to control
Each entry below carries its recorded Activity.
Number only, in %; omit the unit.

Sample answers from the record:
[[record]]
structure_string = "COc1cc2nccc(Oc3ccc(NC(=O)Nc4ccc(OC5CCN(C)CC5)c(C(F)(F)F)c4)c(F)c3)c2cc1OC"
parameter_measured = "Activity"
reported_measurement = 94

[[record]]
structure_string = "COc1cc2nccc(Oc3ccc(NC(=O)Nc4ccc(C=C5CCNCC5)cc4)c(F)c3)c2cc1OC"
parameter_measured = "Activity"
reported_measurement = 100

[[record]]
structure_string = "COc1cc2nccc(Oc3ccc(NC(=O)Nc4ccc(CC5CCNCC5)cc4)c(F)c3)c2cc1OC"
parameter_measured = "Activity"
reported_measurement = 97


Consider now this further compound.
Input `COc1cc2nccc(Oc3ccc(NC(=O)Nc4ccc(CC5CCNCC5)c(C(F)(F)F)c4)c(F)c3)c2cc1OC` , output reported Activity.
94

---

# Tested on: HepG2
# Test Description: Cytotoxicity against human HepG2 cells infected with liver stage Plasmodium berghei ANKA sporozoites assessed as reduction in cell viability measured after 44 hrs by […] assay
# Assay type: toxicity, cell-based
# Condition Label: hepg2, 44 h
Reported CC50 values follow for various compounds
Your answer is read as nM, so omit the unit and give the number.

[[record]]
structure_string = "COc1cc2nccc(Oc3ccc(NC(=O)Nc4ccc(CC5CCNCC5)c(C(F)(F)F)c4)c(F)c3)c2cc1OC"
reported_measurement = 1290

[[record]]
structure_string = "COc1cc2nccc(Oc3ccc(NC(=O)Nc4ccc(OC5CCN(C)CC5)c(C(F)(F)F)c4)c(F)c3)c2cc1OC"
reported_measurement = 410

[[record]]
structure_string = "COc1cc2nccc(Oc3ccc(NC(=O)Nc4ccc(C=C5CCNCC5)cc4)c(F)c3)c2cc1OC"
reported_measurement = 6620


// switching to the query compound
Please list CC50 recorded for the compound `COc1cc2nccc(Oc3ccc(NC(=O)Nc4ccc(CC5CCNCC5)cc4)c(F)c3)c2cc1OC`
3290

---

# Assay System: Cdk-related protein kinase 6 (Plasmodium falciparum)
# Sequence (whole entry): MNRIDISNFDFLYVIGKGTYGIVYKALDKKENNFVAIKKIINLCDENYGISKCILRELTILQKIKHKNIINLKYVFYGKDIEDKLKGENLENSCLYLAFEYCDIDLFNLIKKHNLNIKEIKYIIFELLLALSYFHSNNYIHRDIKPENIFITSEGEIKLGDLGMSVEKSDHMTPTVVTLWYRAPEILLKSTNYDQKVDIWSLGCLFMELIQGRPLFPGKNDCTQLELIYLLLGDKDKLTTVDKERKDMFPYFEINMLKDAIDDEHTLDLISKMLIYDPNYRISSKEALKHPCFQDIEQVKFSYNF
# Test Description: Inhibition of plasmodium falciparum PK6 assessed as remaining activity at 1 uM incubated for 2 hrs by luciferin-based luminescence assay relative to control
Each record gets a class by Activity: band 1 (below 10%), band 2 (10% to below 60%), band 3 (60% or more)

[[record]]
structure_string = "COc1ccc2c(Oc3ccc(NC(=O)Nc4ccc(F)cc4F)c(F)c3)ccnc2c1"
group_label = "band 2"

[[record]]
structure_string = "COc1cc2nccc(Oc3ccc(NC(=O)Nc4ccccc4)cc3)c2cc1OC"
group_label = "band 1"

[[record]]
structure_string = "O=C(Nc1ccc(F)cc1F)Nc1ccc(Oc2ncnc3ccccc23)cc1F"
group_label = "band 3"

[[record]]
structure_string = "COCCOc1cc2nccc(Oc3ccc(NC(=O)Nc4ccc(F)cc4F)c(F)c3)c2cc1OCCOC"
group_label = "band 1"

[[record]]
structure_string = "O=C(Nc1ccc(F)cc1F)Nc1ccc(Oc2ccnc3[nH]ccc23)cc1F"
group_label = "band 2"

[[record]]
structure_string = "O=C(Nc1ccc(O)cc1F)Nc1ccc(F)cc1F"
group_label = "band 3"

[[record]]
structure_string = "COc1ccc2nccc(Oc3ccc(NC(=O)Nc4ccc(F)cc4F)c(F)c3)c2c1"
group_label = "band 2"

[[record]]
structure_string = "O=C(Nc1ccc(F)cc1F)Nc1ccc(Oc2cnnc3ccccc23)cc1F"
group_label = "band 3"

[[record]]
structure_string = "COc1cc2ncnc(Oc3ccc(NC(=O)Nc4ccc(F)cc4F)c(F)c3)c2cc1OC"
group_label = "band 1"

[[record]]
structure_string = "O=C(Nc1ccc(F)cc1F)Nc1ccc(Oc2ccnc3ccsc23)cc1F"
group_label = "band 2"


Sort into band: `COc1ccc(NC(=O)Nc2ccc(F)cc2F)c(F)c1`
band 3

Class for `COc1cc2nccc(Oc3ccc(NC(=O)Nc4ccc(F)cc4F)cc3)c2cc1OC` ?
band 1

---

# Test Description: Kinetic solubility of the compound at pH 7.4
# Assay type: physicochemical
# Condition Label: buffer, read-out: Kinetic_solubility
Measured solubility kinetic, listed per entry for reference.
Value expressed in µM; do not type the unit.

Some molecules with known solubility kinetic results, for comparison:
[[record]]
structure_string = "COc1cc2nccc(Oc3ccc(NC(=O)Nc4ccc(F)cc4F)c(F)c3)c2cc1OC"
reported_measurement = 0.7

[[record]]
structure_string = "COc1cc2nccc(Oc3ccc(NC(=O)Nc4ccc(OC5CCN(C)CC5)c(C(F)(F)F)c4)c(F)c3)c2cc1OC"
reported_measurement = 1.5

[[record]]
structure_string = "COc1cc2nccc(Oc3ccc(NC(=O)Nc4ccc(C=C5CCNCC5)cc4)c(F)c3)c2cc1OC"
reported_measurement = 7.4

[[record]]
structure_string = "COc1cc2nccc(Oc3ccc(NC(=O)Nc4ccc(CN5CCN(C)CC5)c(C(F)(F)F)c4)c(F)c3)c2cc1OC"
reported_measurement = 2.1

[[record]]
structure_string = "COc1cc2nccc(Oc3ccc(NC(=O)Nc4ccc(CC5CCNCC5)cc4)c(F)c3)c2cc1OC"
reported_measurement = 10.9


For the molecule `COc1cc2nccc(Oc3ccc(NC(=O)Nc4ccc(CC5CCNCC5)c(C(F)(F)F)c4)c(F)c3)c2cc1OC` , give its measured solubility kinetic value.
2.1
